assay_system: Rat Hepatic V1 Receptors (Rattus norvegicus)
Construct: Rat liver plasma membranes expressing the vasopressin V1 receptor subtypes; from tissue; host or cells: rat liver plasma membranes
Sequence (P30560 whole entry): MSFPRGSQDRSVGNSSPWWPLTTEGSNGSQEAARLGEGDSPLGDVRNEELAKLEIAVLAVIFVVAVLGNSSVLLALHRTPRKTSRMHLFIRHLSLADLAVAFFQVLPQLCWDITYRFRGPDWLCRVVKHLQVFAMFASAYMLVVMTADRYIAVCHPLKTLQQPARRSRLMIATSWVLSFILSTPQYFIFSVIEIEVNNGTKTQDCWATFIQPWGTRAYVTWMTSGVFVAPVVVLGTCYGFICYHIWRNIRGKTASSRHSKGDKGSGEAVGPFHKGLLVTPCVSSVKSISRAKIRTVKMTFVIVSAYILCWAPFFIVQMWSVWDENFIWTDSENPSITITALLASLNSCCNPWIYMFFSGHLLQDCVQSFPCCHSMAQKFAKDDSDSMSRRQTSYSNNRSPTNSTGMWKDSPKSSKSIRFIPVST
assay_notes: Binding Assay to Rat Hepatic V1 Receptors
study_conditions: read-out: V1 IC50; rat liver membranes

>  <structure>
Cc1ccccc1NC(=O)Nc1ccc(C(=O)N2Cc3cccn3Cc3ccccc32)cc1

>  <IC50 / nM>
280

$$$$

---

System: Vasopressin V1
assay_notes: Vasopressin V1 Antagonist Activity in Conscious Rats (vasopressin vasopressor response)
Type: in vivo, rat
Design: unit not given here
study_conditions: 20 mg/kg i.v., VAS 0.02 i.u./kg, 240 min, SHR
Protocol: Vasopressin V1 Antagonist Activity in Conscious Rats Conscious rats are restrained in a supine position with elastic tape. The area at the base of the tail is locally anesthetized by subcutaneous infiltration with 2% procaine (0.2 ml). […] The animals are placed in plastic restraining cages in an upright position. The cannula is attached to a Statham P23Db pressure transducer and pulsatile blood pressure is recorded. […]
reported_property: Average Change

>  <structure>
Cc1cc(C(=O)N2Cc3cccn3Cc3ccccc32)ccc1N

>  <reported_property>
Average Change

>  <measured>
34

$$$$
>  <structure>
Cc1c(CC(=O)Nc2ccc(C(=O)N3Cc4cccn4Cc4ccccc43)cc2)sc2ccccc12

>  <reported_property>
Average Change

>  <measured>
41

$$$$
>  <structure>
O=C(Nc1ccc(C(=O)N2Cc3cccn3Cc3ccccc32)cc1)c1sc2ccccc2c1Cl

>  <reported_property>
Average Change

>  <measured>
42

$$$$
>  <structure>
O=C(Nc1ccc(C(=O)N2Cc3cccn3Cc3ccccc32)cc1)c1ccc2[nH]ccc2c1

>  <reported_property>
Average Change

>  <measured>
40.5

$$$$
